Compiled from multiple publications: pIC50 readings for Muscarinic acetylcholine receptor M2 (Rattus norvegicus).
Just so you know, pIC50 here is -log10 of the concentration in molar units; reply with that number alone.

>>> reading("CN1CCN(C(=O)N2c3ccccc3C(=O)Nc3cccnc32)CC1")
6.22
>>> reading("CN1CCN(CC(=O)N2c3ccccc3NC(=O)c3cccnc32)CC1")
5.52
>>> reading("O=C1Nc2cccnc2N(C(=O)C[C@H]2CCCN3CCCCC23)c2ccccc21 (stereo partly specified)")
5.72

Q: Which pIC50 is listed for CC(/C=N/O)CC#CCN(C)C (stereo unspecified) ?
Result: 4.47

Q: // repeat for `CN1CCC(OC(=O)N2c3ccccc3C(=O)Nc3cccnc32)CC1` and report
Result: 6.05

Q: // repeat for `CN1CCN(CC(=O)N2c3ccccc3NC(=O)c3cscc32)CC1` and report
Result: 6.46

Q: // repeat for `CN(C)CC(=O)N1c2ccccc2C(=O)Nc2cccnc21` and report
Result: 6.15

Q: // repeat for CN1CCCCC1CC(=O)N1c2ccccc2C(=O)Nc2cccnc21 (stereo unspecified) and report
Result: 8.10

Q: // repeat for O=C1Nc2cccnc2N(C(=O)CNCC2CCCN3CCCCC23)c2ccccc21 (stereo unspecified) and report
Result: 6.00

Q: // repeat for Cc1cc(C(=O)c2ccccc2)ccc1NC(=O)CC1CCCN2CCCC[C@H]12 (stereo partly specified) and report
Result: 5.62

Q: // repeat for `CN1CCC(CC(=O)N2c3ccccc3C(=O)Nc3cccnc32)CC1` and report
Result: 6.15

Q: // repeat for O=C1Nc2cccnc2N(C(=O)C[C@@H]2CCCN3CCCCC23)c2ccccc21 (stereo partly specified) and report
Result: 5.22

Q: // repeat for `CN(C)CCCC(=O)N1c2ccccc2C(=O)Nc2cccnc21` and report
Result: 7.00

Q: // repeat for O=C1Nc2ccccc2N(C(=O)CC2CCCN3CCCCC23)c2ncccc21 (stereo unspecified) and report
Result: 5.17

Q: // repeat for `CN(C)CCCCC(=O)N1c2ccccc2C(=O)Nc2cccnc21` and report
Result: 6.30

Q: // repeat for `CN1CCC(NC(=O)N2c3ccccc3C(=O)Nc3cccnc32)CC1` and report
Result: 5.92
